Metric: melting point

O=C(O)c1cccc(Oc2cccc(Cl)c2)n1 | 96 to 98 °C
O=C(O)CCS(=O)(=O)c1ccc(Br)cc1 | 151 to 153 °C
O=C(O)c1cc(S(=O)(=O)Cl)c(F)c(Cl)c1F | 191 to 193 °C
O=[N+]([O-])c1ccccc1OCC1CO1 (configuration not stated) | 52 to 54 °C
c1ccc(-c2nnco2)cc1 | 35 to 37 °C

Endpoint output: melting point of Cc1cc(CC(=O)NN)[nH]n1 . Value?
151 to 153 °C

Which melting point is listed for Cn1c(=O)n(CCC(=O)O)c2ccccc21 ?
226 to 228 °C
